Listed here: items and their measured MTD.
test: In vivo antitumor assay, Panc03(sc); parameters: species or system mice; conditions: mouse, in vivo, MTD
measurement_label: MTD (mg/kg)

                                   compound  measurement_label  bound_operator  readout_value
0  Cc1cc(-c2c(F)cc3c4nn([C@H]5CC[C@H](N(C)C)CC5)c(=O)c-4cn(C4CC4)c3c2F)cc(C)n1 [Example 51b]                MTD               >            390
1  Cc1cc(-c2c(F)cc3c4nn([C@H]5CC[C@H](N)CC5)c(=O)c-4cn(C4CC4)c3c2F)cc(C)n1 [Example 56b]                MTD               =            550
2  Cc1cc(-c2c(F)cc3c4nn(CCNCCO)c(=O)c-4cn(C4CC4)c3c2F)cc(C)n1                MTD               =           1410

====

experiment: In vivo antitumor assay, Panc03(sc); parameters: species or system mice; details: mouse, in vivo, iv, Panc03(sc), drug iv, qd 3,4, exp 1005A; read-out: MTD
measurement_label: MTD (mg/kg)

>>> df
                                   compound  measurement_label  unit_annotation  readout_value
0  Cc1cc(-c2c(F)cc3c4nn(CCN(C)C)c(=O)c-4cn(C4CC4)c3c2F)cc(C)n1.O=C(O)/C=C/C(=O)O [Example 1]                MTD            mg/kg             52

====

molecular target: human topoisomerase II (Homo sapiens); construct: Topo II was purified from late log phase suspension cultures of HeLa WIS; endogenous in cells; host or cells: HeLa WIS; assay: Mammalian topoisomerase II inhibition assay (topo II covalently attached to DNA, relative to mAMSA); assay type: biochemical; conditions: conc. achieving 50% of maximal effect of mAMSA; topo II from HeLa cells; read-out: topo II inh. EC50
Sequence (P11388 whole entry): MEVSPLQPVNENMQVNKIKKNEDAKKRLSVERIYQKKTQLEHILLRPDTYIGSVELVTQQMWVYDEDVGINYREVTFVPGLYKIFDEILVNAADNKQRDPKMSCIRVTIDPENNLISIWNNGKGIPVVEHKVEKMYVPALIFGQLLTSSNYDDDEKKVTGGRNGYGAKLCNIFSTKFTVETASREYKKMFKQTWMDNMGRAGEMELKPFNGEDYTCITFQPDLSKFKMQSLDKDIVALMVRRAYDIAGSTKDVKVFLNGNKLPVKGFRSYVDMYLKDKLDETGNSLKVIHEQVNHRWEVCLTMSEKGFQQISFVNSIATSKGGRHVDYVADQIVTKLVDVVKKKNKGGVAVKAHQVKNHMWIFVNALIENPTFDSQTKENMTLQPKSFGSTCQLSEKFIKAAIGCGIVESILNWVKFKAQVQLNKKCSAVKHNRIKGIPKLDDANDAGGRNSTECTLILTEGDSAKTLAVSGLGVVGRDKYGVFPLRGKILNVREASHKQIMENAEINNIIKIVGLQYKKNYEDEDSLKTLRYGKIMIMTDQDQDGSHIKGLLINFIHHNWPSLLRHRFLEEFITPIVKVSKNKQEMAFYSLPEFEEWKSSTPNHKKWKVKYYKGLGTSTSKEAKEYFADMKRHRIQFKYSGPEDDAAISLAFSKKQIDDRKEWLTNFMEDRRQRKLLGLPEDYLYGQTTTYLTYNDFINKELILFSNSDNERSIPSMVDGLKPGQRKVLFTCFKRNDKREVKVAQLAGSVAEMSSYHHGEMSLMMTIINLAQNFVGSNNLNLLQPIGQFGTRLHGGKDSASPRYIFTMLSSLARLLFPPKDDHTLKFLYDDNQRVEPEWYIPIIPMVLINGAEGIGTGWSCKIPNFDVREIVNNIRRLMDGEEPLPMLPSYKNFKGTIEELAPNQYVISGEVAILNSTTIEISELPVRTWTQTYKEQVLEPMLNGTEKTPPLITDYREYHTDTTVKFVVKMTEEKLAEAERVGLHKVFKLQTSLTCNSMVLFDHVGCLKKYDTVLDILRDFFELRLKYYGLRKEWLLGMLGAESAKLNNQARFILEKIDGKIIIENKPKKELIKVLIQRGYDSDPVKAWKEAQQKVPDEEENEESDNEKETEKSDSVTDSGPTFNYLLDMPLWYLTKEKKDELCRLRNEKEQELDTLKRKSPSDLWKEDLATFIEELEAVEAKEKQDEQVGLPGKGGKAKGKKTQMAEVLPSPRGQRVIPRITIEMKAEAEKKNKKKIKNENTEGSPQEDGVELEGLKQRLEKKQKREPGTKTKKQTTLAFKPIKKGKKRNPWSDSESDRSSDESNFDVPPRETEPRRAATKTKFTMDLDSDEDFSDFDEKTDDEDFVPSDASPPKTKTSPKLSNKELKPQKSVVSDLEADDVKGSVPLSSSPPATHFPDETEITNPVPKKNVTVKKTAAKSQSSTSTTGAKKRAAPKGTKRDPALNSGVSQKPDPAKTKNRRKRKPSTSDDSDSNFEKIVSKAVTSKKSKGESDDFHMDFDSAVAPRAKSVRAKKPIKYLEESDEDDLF
pEC50: −log10 of the molar value.
Listed next: entries and their corresponding pEC50.
measurement_label: pEC50

>>> print(df.to_string())
                                   compound  readout_value
0  COc1ccc(Cn2nc3c4cc(F)c(-c5cc(C)nc(C)c5)c(F)c4n(C4CC4)cc-3c2=O)cc1           5.49
1  Cc1cc(-c2c(F)cc3c4nn(C5CCOCC5)c(=O)c-4cn(C4CC4)c3c2F)cc(C)n1           5.77
2  Cc1cc(-c2c(F)cc3c4nn(C5CCCCCC5)c(=O)c-4cn(C4CC4)c3c2F)cc(C)n1           5.54
3  Cc1cc(-c2c(F)cc3c4nn(Cc5ccccc5O)c(=O)c-4cn(C4CC4)c3c2F)cc(C)n1           5.42
4  Cc1cc(-c2c(F)cc3c4nn(CCC5CCCN5C)c(=O)c-4cn(C4CC4)c3c2F)cc(C)n1 (stereo not shown)           5.46
5  Cc1cc(-c2c(F)cc3c4nn(-c5ccccn5)c(=O)c-4cn(C4CC4)c3c2F)cc(C)n1           5.55
6  Cc1cc(-c2c(F)cc3c4nn(-c5c(F)c(F)c(F)c(F)c5F)c(=O)c-4cn(C4CC4)c3c2F)cc(C)n1           5.47
